Values compiled from PubChem BioAssay AID1745844.

# Tested on: rodent lifetime carcinogenesis bioassay, tumor incidence TD50
# measurementNotes: carcinogenic potency in animals, long-term in vivo studies, CPDB compilation (AID 1745844)
# conditionsUsed: rat; strain Fischer 344; males; inhaled; site: mammary gland; lesion: fibroadenoma; dosed 113 weeks; study length 113 weeks
experimentalReadout: TD50 (mg/kg/day)
Field: numeric (mg/kg/day). Do not append units.

Endpoint output: TD50 of CCC(C)=NO . Value?
346

---

# Test system: rodent lifetime carcinogenesis bioassay, tumor incidence TD50
# measurementNotes: carcinogenic potency in animals, long-term in vivo studies, CPDB compilation (AID 1745844)
# conditionsUsed: mouse; strain B6C3F1; females; inhaled; site: all sites; lesion: hemangiosarcoma; dosed 95 weeks; study length 95 weeks
experimentalReadout: TD50 (mg/kg/day)
Field: numeric (mg/kg/day). Do not append units.

Lookup: TD50 / rodent lifetime carcinogenesis bioassay, tumor incidence TD50 / FC(F)=C(F)F
66.5

---

# Tested on: rodent lifetime carcinogenesis bioassay, tumor incidence TD50
# measurementNotes: carcinogenic potency in animals, long-term in vivo studies, CPDB compilation (AID 1745844)
# conditionsUsed: mouse; strain B6C3F1; males; in feed; site: multiple organs + spleen; lesion: malignant lymphoma, mixed type; dosed 103 weeks; study length 104 weeks
experimentalReadout: TD50
Record the result as a number with its unit.

Endpoint output: TD50 of CNC[C@H](O)c1cccc(O)c1 . Value?
1720 mg/kg/day

---

# Test system: rodent lifetime carcinogenesis bioassay, tumor incidence TD50
# measurementNotes: carcinogenic potency in animals, long-term in vivo studies, CPDB compilation (AID 1745844)
# conditionsUsed: hamster; strain Syrian Golden; females; by gavage; site: nasal mucosa; lesion: malignant tumor; dosed 61 weeks; study length 106 weeks
experimentalReadout: TD50 (mg/kg/day)
Field: numeric (mg/kg/day). Do not append units.

Endpoint output: TD50 of CN(C)CCN(C)N=O . Value?
9.45

---

# System: rodent lifetime carcinogenesis bioassay, tumor incidence TD50
# measurementNotes: carcinogenic potency in animals, long-term in vivo studies, CPDB compilation (AID 1745844)
# conditionsUsed: mouse; strain B6C3F1; males; by gavage; site: liver; lesion: hepatocellular adenoma + hepatocellular carcinoma + neoplastic nodule; dosed 104 weeks; study length 105 weeks
Some molecules, each annotated with its measured TD50.
Field: numeric (mg/kg/day). Do not append units.

Examples with answers:
Nc1ccc(NCCO)c([N+](=O)[O-])c1
427
c1ccoc1
3.6

Shift focus to the following entry.
Endpoint output: TD50 of ClC=CCCl . Value?
1930

---

# Tested on: rodent lifetime carcinogenesis bioassay, tumor incidence TD50
# measurementNotes: carcinogenic potency in animals, long-term in vivo studies, CPDB compilation (AID 1745844)
# conditionsUsed: rat; strain Fischer 344; males; in feed; site: liver; lesion: hepatocellular adenoma + hepatoblastoma + hepatocellular carcinoma; dosed 99 weeks; study length 103 weeks
experimentalReadout: TD50 (mg/kg/day)
Field: numeric (mg/kg/day). Do not append units.

Endpoint output: TD50 of CCC1(c2ccccc2)C(=O)NCNC1=O . Value?
138

---

# Tested on: rodent lifetime carcinogenesis bioassay, tumor incidence TD50
# measurementNotes: carcinogenic potency in animals, long-term in vivo studies, CPDB compilation (AID 1745844)
# conditionsUsed: mouse; strain B6C3F1; females; in feed; site: liver; lesion: hepatocellular adenoma; dosed 103 weeks; study length 104 weeks
Some molecules, each annotated with its measured TD50.

CNc1ccc(N(CCO)CCO)cc1[N+](=O)[O-]
697 mg/kg/day

Shift focus to the following entry.
Endpoint output: TD50 of COc1ccccc1[N+](=O)[O-] . Value?
179 mg/kg/day
